From: patent US20250197374A1

This listing pairs molecules with measured 293T-LentiX WEE1-ePL Degradation 4 hr YMin (%).
Target: WEE1 (Homo sapiens, UniProt P30291+Q96SW2)
Construct: C-terminal ePL-tagged (DiscoverX, Fremont, CA) full-length WEE1 expression construct; expressed in transfected cells; host or cells: LentiX-HEK293T (Invitrogen), lentivirally transduced; the cells also over-express GSPT1-GN
Sequence (P30291 whole entry): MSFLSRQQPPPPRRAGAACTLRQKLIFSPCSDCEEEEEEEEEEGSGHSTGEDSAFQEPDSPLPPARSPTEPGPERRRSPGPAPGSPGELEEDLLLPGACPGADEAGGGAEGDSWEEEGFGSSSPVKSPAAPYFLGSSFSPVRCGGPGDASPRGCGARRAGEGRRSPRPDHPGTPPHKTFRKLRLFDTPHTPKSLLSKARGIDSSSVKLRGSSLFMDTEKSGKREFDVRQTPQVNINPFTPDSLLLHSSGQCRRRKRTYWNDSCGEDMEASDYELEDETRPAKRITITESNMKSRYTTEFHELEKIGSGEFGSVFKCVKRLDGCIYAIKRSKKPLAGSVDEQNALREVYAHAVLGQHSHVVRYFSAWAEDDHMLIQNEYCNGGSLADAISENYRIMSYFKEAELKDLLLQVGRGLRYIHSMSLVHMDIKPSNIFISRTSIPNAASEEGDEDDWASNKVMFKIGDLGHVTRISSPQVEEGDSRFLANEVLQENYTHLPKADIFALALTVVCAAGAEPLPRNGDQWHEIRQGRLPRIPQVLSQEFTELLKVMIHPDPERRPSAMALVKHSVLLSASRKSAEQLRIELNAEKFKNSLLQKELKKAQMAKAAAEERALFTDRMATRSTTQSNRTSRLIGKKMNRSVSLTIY
Sequence (Q96SW2 whole entry): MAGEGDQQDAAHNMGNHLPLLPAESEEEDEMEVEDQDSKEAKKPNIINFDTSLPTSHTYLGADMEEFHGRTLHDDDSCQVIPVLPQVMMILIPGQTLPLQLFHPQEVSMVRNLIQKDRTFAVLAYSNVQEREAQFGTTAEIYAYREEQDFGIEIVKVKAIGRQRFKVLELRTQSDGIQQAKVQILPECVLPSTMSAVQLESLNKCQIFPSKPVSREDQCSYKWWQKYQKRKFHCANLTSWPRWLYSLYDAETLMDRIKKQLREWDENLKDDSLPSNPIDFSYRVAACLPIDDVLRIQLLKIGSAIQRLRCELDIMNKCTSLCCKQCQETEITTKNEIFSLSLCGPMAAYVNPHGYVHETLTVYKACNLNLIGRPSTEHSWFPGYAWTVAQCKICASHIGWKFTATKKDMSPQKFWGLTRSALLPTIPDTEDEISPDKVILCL
Sequence (Q16531 whole entry partner): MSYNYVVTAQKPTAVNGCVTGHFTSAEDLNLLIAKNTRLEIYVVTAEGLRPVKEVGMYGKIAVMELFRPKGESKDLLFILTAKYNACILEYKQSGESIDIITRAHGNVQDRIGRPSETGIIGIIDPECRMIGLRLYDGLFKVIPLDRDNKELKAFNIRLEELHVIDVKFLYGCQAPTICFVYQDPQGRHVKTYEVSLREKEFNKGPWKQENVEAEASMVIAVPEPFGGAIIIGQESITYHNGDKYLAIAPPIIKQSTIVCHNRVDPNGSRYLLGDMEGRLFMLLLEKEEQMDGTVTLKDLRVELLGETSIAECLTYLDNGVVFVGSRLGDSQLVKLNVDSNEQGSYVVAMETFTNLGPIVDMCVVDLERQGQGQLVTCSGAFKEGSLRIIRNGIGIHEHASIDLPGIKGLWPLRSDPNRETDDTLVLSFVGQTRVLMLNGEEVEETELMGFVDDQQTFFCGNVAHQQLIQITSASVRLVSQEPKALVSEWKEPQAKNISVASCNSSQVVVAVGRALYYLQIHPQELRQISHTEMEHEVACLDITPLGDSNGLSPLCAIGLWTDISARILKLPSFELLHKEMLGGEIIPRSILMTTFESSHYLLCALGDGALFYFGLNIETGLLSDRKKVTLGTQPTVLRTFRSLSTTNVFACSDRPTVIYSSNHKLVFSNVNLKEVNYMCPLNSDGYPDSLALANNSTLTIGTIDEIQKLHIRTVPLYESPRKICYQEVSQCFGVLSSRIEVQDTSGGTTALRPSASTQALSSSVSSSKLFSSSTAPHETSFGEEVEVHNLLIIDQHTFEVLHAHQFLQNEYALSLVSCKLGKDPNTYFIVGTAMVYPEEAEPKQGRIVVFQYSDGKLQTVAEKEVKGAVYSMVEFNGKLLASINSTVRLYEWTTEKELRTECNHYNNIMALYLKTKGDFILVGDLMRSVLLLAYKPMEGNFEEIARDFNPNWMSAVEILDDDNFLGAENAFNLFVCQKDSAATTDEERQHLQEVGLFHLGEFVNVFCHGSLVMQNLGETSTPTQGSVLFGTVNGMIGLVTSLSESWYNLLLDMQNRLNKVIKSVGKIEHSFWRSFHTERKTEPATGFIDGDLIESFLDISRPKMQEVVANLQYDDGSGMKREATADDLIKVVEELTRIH
Test: WEE1-ePL degradation assay (293T-LentiX, InCELL Hunter luminescence, 4 hr)
Assay type: cell-based
Details: lower limit of fit, % of DMSO control signal remaining; 4 hr
# unit: % | format: bare number

Record excerpt, results attached:
293T-LentiX WEE1-ePL Degradation 4 hr YMin (%) measured on COC[C@@H]1CN(Cc2cc(F)c3cc(N4CCOCC4)ncc3c2)C[C@H]1Oc1ccc2c(c1)CN([C@H]1CCC(=O)NC1=O)C2=O = 24.5

293T-LentiX WEE1-ePL Degradation 4 hr YMin (%) measured on CN1CC2(CC(c3ccc4cc(CN5CC[C@H](Oc6ccc7c(c6)CN([C@H]6CCC(=O)NC6=O)C7=O)C5)ccc4n3)CO2)C1 (single isomer, unassigned) [Example 1] = 30.7

Now for a further molecule.
293T-LentiX WEE1-ePL Degradation 4 hr YMin (%) measured on COC[C@@H]1CN(Cc2ccc3nc(N4CCN(C5CN(C)C5)CC4)ccc3c2)C[C@H]1Oc1ccc2c(c1)CN([C@H]1CCC(=O)NC1=O)C2=O = 29.5

---

Tested on: MKN45 cells
Experiment: MKN45 cell proliferation assay (Cell-Titer-Glo, 120 hr)
Format: cell-based
Conditions: Homo sapiens, MKN-45, 120 h, read-out: MKN45 Cell Prolif. 120 hr EC50
This listing pairs molecules with measured pEC50.
Note: pEC50 values are expressed as the negative base-10 logarithm of concentration in M.

Record excerpt, results attached:
pEC50 measured on CN1CC2(CC(c3ccc4cc(CN5CC[C@H](Oc6ccc7c(c6)CN([C@H]6CCC(=O)NC6=O)C7=O)C5)ccc4n3)CO2)C1 (single isomer, unassigned) = 7.12

pEC50 measured on COC[C@@H]1CN(Cc2ccc3ccc(N4CCOCC4)nc3c2)C[C@H]1Oc1ccc2c(c1)CN([C@H]1CCC(=O)NC1=O)C2=O = 6.47

pEC50 measured on COC[C@@H]1CN(Cc2ccc3nc(C4CCN(C5CN(C)C5)CC4)ccc3c2)C[C@H]1Oc1ccc2c(c1)CN([C@H]1CCC(=O)NC1=O)C2=O = 8.70

pEC50 measured on COC[C@@H]1CN(Cc2ccc3ncc(N4CCOCC4)cc3c2)C[C@H]1Oc1ccc2c(c1)CN([C@H]1CCC(=O)NC1=O)C2=O = 8.70

pEC50 measured on COC[C@@H]1CN(Cc2cnc3nc(C4CCOCC4)ncc3c2)C[C@H]1Oc1ccc2c(c1)CN([C@H]1CCC(=O)NC1=O)C2=O = 6.97

Next:
pEC50 measured on O=C1CC[C@H](N2Cc3cc(O[C@H]4CCN(Cc5ccc6nc([C@@H]7CCO[C@]8(CCOC8)C7)ccc6c5)C4)ccc3C2=O)C(=O)N1 (relative stereo) = 8.70

---

Biological target: WEE1 (Homo sapiens, UniProt P30291+Q96SW2)
Construct: C-terminal ePL-tagged (DiscoverX, Fremont, CA) full-length WEE1 expression construct; expressed in transfected cells; host or cells: LentiX-HEK293T (Invitrogen), lentivirally transduced; the cells also over-express GSPT1-GN
Test: WEE1-ePL degradation assay (293T-LentiX, InCELL Hunter luminescence, 4 hr)
Assay type: cell-based
Conditions: lower limit of fit, % of DMSO control signal remaining; 4 hr
This listing pairs compounds with measured 293T-LentiX WEE1-ePL Degradation 4 hr YMin (%).
# unit: % | format: bare number

Record excerpt, results attached:
293T-LentiX WEE1-ePL Degradation 4 hr YMin (%) measured on COC[C@@H]1CN(Cc2cc3ccc(C(C)(C)O)cc3cn2)C[C@H]1Oc1ccc2c(c1)CN([C@H]1CCC(=O)NC1=O)C2=O = 30.9

293T-LentiX WEE1-ePL Degradation 4 hr YMin (%) measured on COC[C@@H]1CN(Cc2cc(F)c3nc(C4CCC(C(C)(C)O)CC4)ncc3c2)C[C@H]1Oc1ccc2c(c1)CN([C@H]1CCC(=O)NC1=O)C2=O (relative stereo) = 27.1

293T-LentiX WEE1-ePL Degradation 4 hr YMin (%) measured on COC[C@@H]1CN(Cc2ccc3nc(C4CCOC(C)(C)C4)ccc3c2)C[C@H]1Oc1ccc2c(c1)CN([C@H]1CCC(=O)NC1=O)C2=O (some centres unmarked) = 30.8

293T-LentiX WEE1-ePL Degradation 4 hr YMin (%) measured on COC[C@@H]1CN(Cc2ccc3cc(N4CCOCC4)cnc3c2F)C[C@H]1Oc1ccc2c(c1)CN([C@H]1CCC(=O)NC1=O)C2=O = 33.0

293T-LentiX WEE1-ePL Degradation 4 hr YMin (%) measured on COC[C@@H]1CN(Cc2cc(F)c3nc(COC4CCOCC4)ccc3c2)C[C@H]1Oc1ccc2c(c1)CN([C@H]1CCC(=O)NC1=O)C2=O = 29.3

Next:
293T-LentiX WEE1-ePL Degradation 4 hr YMin (%) measured on COC[C@@H]1CN(Cc2cc(F)c3nc(C)c(N4CCOCC4)cc3c2)C[C@H]1Oc1ccc2c(c1)CN([C@H]1CCC(=O)NC1=O)C2=O = 24.6

293T-LentiX WEE1-ePL Degradation 4 hr YMin (%) measured on COC[C@@H]1CN(Cc2cc(F)c3nc(COC4CCOCC4)ncc3c2)C[C@H]1Oc1ccc2c(c1)CN([C@H]1CCC(=O)NC1=O)C2=O = 31.5

293T-LentiX WEE1-ePL Degradation 4 hr YMin (%) measured on COC[C@@H]1CN(Cc2cc(F)c3nc(C4CCCO4)ncc3c2)C[C@H]1Oc1ccc2c(c1)CN([C@H]1CCC(=O)NC1=O)C2=O (mixture of isomers) = 25.5

293T-LentiX WEE1-ePL Degradation 4 hr YMin (%) measured on O=C1CC[C@H](N2Cc3cc(O[C@H]4CCN(Cc5cc(F)c6nc(N7C[C@@H]8CCO[C@@H]8C7)ncc6c5)C4)ccc3C2=O)C(=O)N1 (single isomer, unassigned) = 31.4

293T-LentiX WEE1-ePL Degradation 4 hr YMin (%) measured on COC[C@@H]1CN(Cc2cc(F)c3nc(N4C[C@@H]5CCO[C@@H]5C4)ncc3c2)C[C@H]1Oc1ccc2c(c1)CN([C@H]1CCC(=O)NC1=O)C2=O (single isomer, unassigned) = 22.1

293T-LentiX WEE1-ePL Degradation 4 hr YMin (%) measured on COC[C@@H]1CN(Cc2cc(F)c3nc(C4CN(CC(F)(F)F)C4)ncc3c2)C[C@H]1Oc1ccc2c(c1)CN([C@H]1CCC(=O)NC1=O)C2=O = 26.2
